- System: rodent lifetime carcinogenesis bioassay, tumor incidence TD50
- Method Description: carcinogenic potency in animals, long-term in vivo studies, CPDB compilation (AID 1745844)
- Condition Notes: mouse; strain Crj:BDF1; females; inhaled; site: liver; lesion: hepatocellular carcinoma; dosed 104 weeks; study length 104 weeks
Value Kind: TD50

Inquiry: Need TD50, item `ClC(Cl)=C(Cl)Cl`
Reply text: 1420 mg/kg/day

Inquiry: Need TD50, item `ClC(Cl)Cl`
Reply text: 2670 mg/kg/day

---

- System: rodent lifetime carcinogenesis bioassay, tumor incidence TD50
- Method Description: carcinogenic potency in animals, long-term in vivo studies, CPDB compilation (AID 1745844)
- Condition Notes: rat; strain Fischer 344; males; in drinking water; site: skin; lesion: basal-cell adenoma; dosed 104 weeks; study length 104 weeks
Value Kind: TD50 (mg/kg/day)
The reply should contain only the number, in mg/kg/day.

Inquiry: Need TD50, item `Cc1ccc(S(=O)(=O)Oc2ccc(N=Nc3ccc(-c4ccc(N=Nc5c(O)ccc6cc(S(=O)(=O)O)cc(S(=O)(=O)O)c56)c(C)c4)cc3C)cc2)cc1`
Reply text: 3.58

---

- System: rodent lifetime carcinogenesis bioassay, tumor incidence TD50
- Method Description: carcinogenic potency in animals, long-term in vivo studies, CPDB compilation (AID 1745844)
- Condition Notes: rat; strain Fischer 344; males; in drinking water; site: liver; lesion: hepatoma; dosed 112 weeks; study length 112 weeks
Value Kind: TD50 (mg/kg/day)
The reply should contain only the number, in mg/kg/day.

Inquiry: Need TD50, item CN(CCCC(O)c1cccnc1)N=O (stereo unspecified)
Reply text: 5.86

---

- Test system: rodent lifetime carcinogenesis bioassay, tumor incidence TD50
- Method Description: carcinogenic potency in animals, long-term in vivo studies, CPDB compilation (AID 1745844)
- Condition Notes: mouse; strain B6C3F1; females; inhaled; site: uterus; lesion: adenoma, NOS; dosed 103 weeks; study length 105 weeks
Value Kind: TD50 (mg/kg/day)
The reply should contain only the number, in mg/kg/day.

Inquiry: Need TD50, item `CCBr`
Reply text: 2610

---

- Test system: rodent lifetime carcinogenesis bioassay, tumor incidence TD50
- Method Description: carcinogenic potency in animals, long-term in vivo studies, CPDB compilation (AID 1745844)
- Condition Notes: mouse; strain B6C3F1; males; inhaled; site: lung; lesion: alveolar/bronchiolar carcinoma; dosed 26 weeks; study length 104 weeks
Value Kind: TD50 (mg/kg/day)
The reply should contain only the number, in mg/kg/day.

Inquiry: Need TD50, item `C=CC=C`
Reply text: 17.8

---

- System: rodent lifetime carcinogenesis bioassay, tumor incidence TD50
- Method Description: carcinogenic potency in animals, long-term in vivo studies, CPDB compilation (AID 1745844)
- Condition Notes: rat; strain Hebrew University; males; in drinking water; site: auricular region; lesion: epidermoid carcinoma; dosed 113 weeks; study length 113 weeks
Value Kind: TD50

Inquiry: Form field - read-out: TD50; system: rodent lifetime carcinogenesis bioassay, tumor incidence TD50; submitted item: `NC(N)=S`
Reply text: 93.5 mg/kg/day

---

- Test system: rodent lifetime carcinogenesis bioassay, tumor incidence TD50
- Method Description: carcinogenic potency in animals, long-term in vivo studies, CPDB compilation (AID 1745844)
- Condition Notes: rat; strain Fischer 344; males; inhaled; site: lung; lesion: alveolar/bronchiolar adenoma + alveolar/bronchiolar carcinoma; dosed 104 weeks; study length 104 weeks
Value Kind: TD50

Inquiry: Need TD50, item `C=CC(=C)Cl`
Reply text: 23.8 mg/kg/day

---

- Tested on: rodent lifetime carcinogenesis bioassay, tumor incidence TD50
- Method Description: carcinogenic potency in animals, long-term in vivo studies, CPDB compilation (AID 1745844)
- Condition Notes: rat; strain F344/DuCrj; males; in feed; site: urinary bladder; lesion: squamous-cell papilloma; dosed 104 weeks; study length 104 weeks
Value Kind: TD50
Phrase the answer as number then unit, nothing more needed.

Inquiry: Need TD50, item `O=c1cc[nH]c(=O)[nH]1`
Reply text: 24300 mg/kg/day

---

- Tested on: rodent lifetime carcinogenesis bioassay, tumor incidence TD50
- Method Description: carcinogenic potency in animals, long-term in vivo studies, CPDB compilation (AID 1745844)
- Condition Notes: rat; strain F344/DuCrj; males; by gavage; site: liver; lesion: hepatocellular carcinoma; dosed 104 weeks; study length 104 weeks
Activity calls are given as the source filed them. The rule behind the calls is not given here.
Value Kind: TD50

Inquiry: Form field - read-out: TD50; system: rodent lifetime carcinogenesis bioassay, tumor incidence TD50; submitted item: `OCC(CO)N[C@H]1C[C@](O)(CO)[C@@H](O)[C@H](O)[C@H]1O`
Reply text: 1740 mg/kg/day (inactive)

Inquiry: Form field - read-out: TD50; system: rodent lifetime carcinogenesis bioassay, tumor incidence TD50; submitted item: CC1=C(C(=O)OC(C)C)C(c2cccc([N+](=O)[O-])c2)C(C(=O)OC2CN(C(c3ccccc3)c3ccccc3)C2)=C(N)N1 (configuration not stated)
Reply text: 237 mg/kg/day (inactive)

---

- Tested on: rodent lifetime carcinogenesis bioassay, tumor incidence TD50
- Method Description: carcinogenic potency in animals, long-term in vivo studies, CPDB compilation (AID 1745844)
- Condition Notes: rat; strain F344/DuCrj; females; inhaled; site: kidney; lesion: transitional-cell carcinoma; dosed 104 weeks; study length 104 weeks
Activity calls are given as the source filed them. No rule for the calls is given here.
Value Kind: TD50

Inquiry: Need TD50, item `ClC(Cl)Cl`
Reply text: 1590 mg/kg/day (inactive)

---

- System: rodent lifetime carcinogenesis bioassay, tumor incidence TD50
- Method Description: carcinogenic potency in animals, long-term in vivo studies, CPDB compilation (AID 1745844)
- Condition Notes: rat; strain Charles River CD (Sprague-Dawley); females; by gavage; site: small intestine; lesion: adenocarcinoma; dosed 46 weeks; study length 60 weeks
Value Kind: TD50

Inquiry: Need TD50, item `O=S1(=O)CCCO1`
Reply text: 31.7 mg/kg/day

---

- System: rodent lifetime carcinogenesis bioassay, tumor incidence TD50
- Method Description: carcinogenic potency in animals, long-term in vivo studies, CPDB compilation (AID 1745844)
- Condition Notes: mouse; strain B6C3F1; females; by gavage; site: Harderian gland; lesion: adenoma, NOS; dosed 103 weeks; study length 104 weeks
Value Kind: TD50 (mg/kg/day)
The reply should contain only the number, in mg/kg/day.

Inquiry: Form field - read-out: TD50; system: rodent lifetime carcinogenesis bioassay, tumor incidence TD50; submitted item: CCCC(Cl)CCCC(Cl)CCC(Cl)CCC(Cl)CCC(Cl)CCCC(Cl)CCC (stereo unspecified)
Reply text: 347

---

- Test system: rodent lifetime carcinogenesis bioassay, tumor incidence TD50
- Method Description: carcinogenic potency in animals, long-term in vivo studies, CPDB compilation (AID 1745844)
- Condition Notes: hamster; strain Syrian Golden; females; inhaled; site: larynx; lesion: adenosquamous carcinoma; dosed 52 weeks; study length 81 weeks
Value Kind: TD50

Inquiry: Need TD50, item `CC=O`
Reply text: 1140 mg/kg/day

---

- Test system: rodent lifetime carcinogenesis bioassay, tumor incidence TD50
- Method Description: carcinogenic potency in animals, long-term in vivo studies, CPDB compilation (AID 1745844)
- Condition Notes: rat; strain Fischer 344; females; in feed; site: lung; lesion: alveolar/bronchiolar adenoma + alveolar/bronchiolar carcinoma; dosed 101 weeks; study length 101 weeks
Value Kind: TD50

Inquiry: Form field - read-out: TD50; system: rodent lifetime carcinogenesis bioassay, tumor incidence TD50; submitted item: `Cc1cc(C)c(N)cc1C`
Reply text: 88.1 mg/kg/day

---

- Tested on: rodent lifetime carcinogenesis bioassay, tumor incidence TD50
- Method Description: carcinogenic potency in animals, long-term in vivo studies, CPDB compilation (AID 1745844)
- Condition Notes: rat; strain F344/DuCrj; males; in drinking water; site: duodenum; lesion: several types; types named in the paper; dosed 50 weeks; study length 50 weeks
Value Kind: TD50 (mg/kg/day)
The reply should contain only the number, in mg/kg/day.

Inquiry: Need TD50, item `CCCCN(N=O)C(N)=O`
Reply text: 11.8

---

- System: rodent lifetime carcinogenesis bioassay, tumor incidence TD50
- Method Description: carcinogenic potency in animals, long-term in vivo studies, CPDB compilation (AID 1745844)
- Condition Notes: mouse; strain B6C3F1; males; in drinking water; site: any site (literature study); lesion: several types; types named in the paper; dosed 90 weeks; study length 91 weeks
Value Kind: TD50 (mg/kg/day)
The reply should contain only the number, in mg/kg/day.

Inquiry: Form field - read-out: TD50; system: rodent lifetime carcinogenesis bioassay, tumor incidence TD50; submitted item: `C1COCCO1`
Reply text: 1880

---

- Tested on: rodent lifetime carcinogenesis bioassay, tumor incidence TD50
- Method Description: carcinogenic potency in animals, long-term in vivo studies, CPDB compilation (AID 1745844)
- Condition Notes: rat; strain Marshall; females; by gavage; site: kidney; lesion: tubular-cell adenoma + tubular-cell adenocarcinoma; dosed 103 weeks; study length 104 weeks
Value Kind: TD50 (mg/kg/day)
The reply should contain only the number, in mg/kg/day.

Inquiry: Need TD50, item `ClC=C(Cl)Cl`
Reply text: 4370
